System Name: TRPML1 (Homo sapiens, UniProt Q9GZU1)
Construct: expressed in transfected cells; host or cells: HEK T-REx cells stably expressing GCaMP6f and TRPML1
Sequence (Q9GZU1 whole entry): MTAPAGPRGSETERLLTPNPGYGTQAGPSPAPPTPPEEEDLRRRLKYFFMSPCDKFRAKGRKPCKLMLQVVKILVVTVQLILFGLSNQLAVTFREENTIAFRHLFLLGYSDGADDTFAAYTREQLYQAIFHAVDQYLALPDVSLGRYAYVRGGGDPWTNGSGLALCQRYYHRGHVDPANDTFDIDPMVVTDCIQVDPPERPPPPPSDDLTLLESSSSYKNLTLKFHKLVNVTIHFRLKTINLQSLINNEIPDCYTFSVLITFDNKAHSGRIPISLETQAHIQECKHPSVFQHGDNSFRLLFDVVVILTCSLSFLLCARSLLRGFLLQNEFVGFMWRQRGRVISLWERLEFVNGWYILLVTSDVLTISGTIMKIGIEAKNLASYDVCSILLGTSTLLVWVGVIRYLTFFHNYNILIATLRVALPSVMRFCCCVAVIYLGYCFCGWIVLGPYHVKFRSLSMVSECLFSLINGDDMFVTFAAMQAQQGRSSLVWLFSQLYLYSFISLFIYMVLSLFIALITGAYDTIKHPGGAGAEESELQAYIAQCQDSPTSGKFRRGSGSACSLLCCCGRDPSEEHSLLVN
Experiment Notes: Cellular TRPML1 assay (FLIPR, GCaMP6f calcium read-out)
Format: cell-based
Cond: HEKT-REx/GCaMP6f/TRPML1 cells, FLIPR TETRA, kinetic response over 300 seconds; read-out: TRPML1 FLIPR pEC50 (converted)
Observable: EC50

{"Compound": "CCc1oc(N2CC(C)(OC)C2)nc1C(=O)Nc1cc(F)c(O[C@@H]2C[C@@H]3C[C@@H]3C2)c(F)c1", "System Name": "TRPML1 (Homo sapiens, UniProt Q9GZU1)", "Observable": "EC50", "Recorded Result": "10 to 1000 nM"}
{"Compound": "O=C(Nc1ccc(OC2CC3C[C@@H]3C2)c(F)c1)c1nc(N2CC3CCOC3C2)oc1CC(F)(F)F (stereo partly drawn)", "System Name": "TRPML1 (Homo sapiens, UniProt Q9GZU1)", "Observable": "EC50", "Recorded Result": "10 to 1000 nM"}
{"Compound": "Cc1oc(N2CCC(CO)C2)nc1C(=O)Nc1ccc(N2CCCCC2)c(F)c1 (stereo not drawn)", "System Name": "TRPML1 (Homo sapiens, UniProt Q9GZU1)", "Observable": "EC50", "Recorded Result": "10000 to 100000 nM"}
{"Compound": "CC(C)OCc1oc(N2CCCC2)nc1C(=O)Nc1ccc(OC2CCCC2(F)F)c(F)c1 (stereo not drawn)", "System Name": "TRPML1 (Homo sapiens, UniProt Q9GZU1)", "Observable": "EC50", "Recorded Result": "1000 to 10000 nM"}
{"Compound": "CCC1(OC)CN(c2nc(C(=O)Nc3cc(F)c4c(c3)CCN4C3CC4CC4C3)c(CC(F)(F)F)o2)C1 (stereo not drawn)", "System Name": "TRPML1 (Homo sapiens, UniProt Q9GZU1)", "Observable": "EC50", "Recorded Result": "1000 to 10000 nM"}
{"Compound": "CCc1oc(-n2cccn2)nc1C(=O)Nc1cc(F)c(O[C@@H]2C[C@@H]3C[C@@H]3C2)c(F)c1", "System Name": "TRPML1 (Homo sapiens, UniProt Q9GZU1)", "Observable": "EC50", "Recorded Result": "1000 to 10000 nM"}
{"Compound": "COCC1(COC)CN(c2nc(C(=O)Nc3cc(F)c(O[C@@H]4C[C@@H]5C[C@@H]5C4)c(F)c3)c(CC(F)(F)F)o2)C1", "System Name": "TRPML1 (Homo sapiens, UniProt Q9GZU1)", "Observable": "EC50", "Recorded Result": "10 to 1000 nM"}
{"Compound": "NCC1CN(c2nc(C(=O)Nc3ccc(OC4CCCC4(F)F)c(F)c3)c(CC(F)(F)F)o2)C1 (stereo not drawn)", "System Name": "TRPML1 (Homo sapiens, UniProt Q9GZU1)", "Observable": "EC50", "Recorded Result": "10000 to 100000 nM"}

Determine its reported EC50: O=C(Nc1ccc(OC2CCCC23CCC3)c(F)c1)c1nc(N2CCCC2)oc1CC(F)(F)F (stereo not drawn)
1000 to 10000 nM

Give recorded EC50. O=C(Nc1cc(F)c(OC2CC3C[C@H]3C2)c(F)c1)c1nc(N2CC3CCOC3C2)oc1CC(F)(F)F (stereo partly drawn)
10 to 1000 nM

Entry O=C(Nc1ccc(OC2CCCC2(F)F)c(F)c1)c1nc(N2CC3CCOC3C2)oc1CC(F)(F)F (stereo not drawn) needs its EC50 filled in; supply it.
1000 to 10000 nM

Fill in reported EC50 for this entry: O=C(Nc1cc(F)c(O[C@@H]2C[C@@H]3C[C@@H]3C2)c(F)c1)c1nc(N2CCC3CCCCC32)oc1CC(F)(F)F (stereo partly drawn)
10 to 1000 nM

Query EC50 for O=C(Nc1ccc(O[C@H]2COCC2(F)F)c(F)c1)c1nc(N2CCCC2)oc1CC(F)(F)F
10 to 1000 nM

Quickly give me recorded EC50 for COCc1oc(N2CCCC2)nc1C(=O)Nc1ccc(OC2CCCC2)c(F)c1
10000 to 100000 nM

Look up and state reported EC50 for CCC1(CC)CN(c2nc(C(=O)Nc3cc(C)c(O[C@@H]4C[C@@H]5C[C@@H]5C4)c(F)c3)c(CCF)o2)C1
10 to 1000 nM
